Target: human Glycogen Synthase Kinase-3 beta (hGSK-3β) (Homo sapiens, UniProt P49841)
Sequence (P49841 whole entry): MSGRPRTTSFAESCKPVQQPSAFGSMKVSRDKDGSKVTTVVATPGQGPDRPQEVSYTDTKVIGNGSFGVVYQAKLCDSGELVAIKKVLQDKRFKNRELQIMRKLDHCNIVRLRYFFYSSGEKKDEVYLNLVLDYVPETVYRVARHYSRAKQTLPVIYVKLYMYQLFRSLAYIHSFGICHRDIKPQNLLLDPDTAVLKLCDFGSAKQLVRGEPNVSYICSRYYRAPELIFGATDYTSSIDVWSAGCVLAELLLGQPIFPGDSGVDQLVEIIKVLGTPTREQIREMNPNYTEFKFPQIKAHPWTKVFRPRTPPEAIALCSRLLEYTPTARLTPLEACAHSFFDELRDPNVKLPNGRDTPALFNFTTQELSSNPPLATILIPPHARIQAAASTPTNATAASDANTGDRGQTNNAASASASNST
pIC50: −log10 of the molar value.
endpoint_label: pIC50

Incoming: Dear colleague, I am looking for the recorded pIC50 of the following molecule: Oc1[nH]c2cnccc2c1-c1ccc(CN2CCOCC2)cn1 [Example 3]
Outgoing: 5.00 to 7.00
